Measured Avg Normalized % maximal activity values are reported for all entries that follow.
target: PfENT1 (Plasmodium falciparum, UniProt Q8IDM6); construct: expressed in transfected cells; host or cells: fui1Δ yeast (Saccharomyces cerevisiae), co-expressing GFP; type: cell-based; conditions: primary HTS, compounds at 10 μM, 125 μM 5-FUrd
Sequence (Q8IDM6 whole entry): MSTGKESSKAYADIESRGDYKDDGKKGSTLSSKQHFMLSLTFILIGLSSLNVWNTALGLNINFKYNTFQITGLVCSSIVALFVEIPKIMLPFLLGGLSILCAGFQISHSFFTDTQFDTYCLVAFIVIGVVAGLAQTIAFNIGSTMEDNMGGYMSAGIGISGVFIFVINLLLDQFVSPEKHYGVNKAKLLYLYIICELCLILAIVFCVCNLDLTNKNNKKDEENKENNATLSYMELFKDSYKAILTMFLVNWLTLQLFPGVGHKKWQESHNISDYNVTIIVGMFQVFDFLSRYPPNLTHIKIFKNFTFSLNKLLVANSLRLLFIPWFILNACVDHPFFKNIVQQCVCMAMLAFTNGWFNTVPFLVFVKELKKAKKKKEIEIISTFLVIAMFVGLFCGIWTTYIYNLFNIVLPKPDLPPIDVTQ
Provide only the numeric value, understood in %.

Please review the following examples before continuing.
>>> result("CC(=O)[C@H]1CC[C@H]2[C@@H]3C[C@H](C)C4=CC(=O)CC[C@]4(C)[C@H]3[C@@H](O)C[C@]12C [compound 121]")
4.13
>>> result("COc1ccc(-c2nc3ccccc3s2)cc1NC(=O)c1cccnc1 [compound 58]")
7.63
>>> result("COc1ccc(Cl)cc1C(=O)Nc1cccc(-c2nnc(-c3ccco3)o2)c1 [compound 80]")
5.99
>>> result("COc1ccc(Cl)cc1C(=O)Nc1cc(C)ccn1 [compound 152]")
2.56
>>> result("COc1ccccc1C(=O)Nc1cccc(-c2nc3ncccc3o2)c1 [compound 7]")
55.05
>>> result("COc1ccc(N(CC(=O)Nc2ccc(Cl)cc2)S(C)(=O)=O)c(OC)c1 [compound 107]")
4.67

Item: CNC[C@H](O)[C@@H](O)[C@H](O)[C@H](O)CO [compound 109] Test system: PfENT1 (Plasmodium falciparum, UniProt Q8IDM6) Read-out: Avg Normalized % maximal activity Value: ? 4.65

Another: CCOc1cc(-c2noc(CCCC(=O)N3CCCCC3)n2)ccc1OC [compound 64] 7.14

Another: O=C(Nc1ccc(-c2nnc(-c3ccccc3)o2)cc1)C1CCCO1 (stereo not drawn) [compound 42] 10.16
